assay: Pharmacokinetic study in mice, non-compartmental analysis; format: in vivo, Female BALB/c mice; conditions: female, BALB/c, mouse, plasma, iv, 100 mg/kg
Readout Name: Vd

INSERT INTO assay_data (compound, result) VALUES
  ('Cc1[nH]nc(C(F)(F)F)c1Cc1sc2c(c1C(=O)N1C[C@](C)(O)CO1)c(=O)n(C)c(=O)n2C(C)C', '0.0286 L');

====

assay: Pharmacokinetic study in mice, non-compartmental analysis; format: in vivo, Female BALB/c mice; details: female, BALB/c, mouse, plasma, iv, 10 mg/kg
Readout Name: concentration at 24 h (ng/mL)

INSERT INTO results (compound, readout_name, numeric_readout) VALUES
  ('Cc1[nH]nc(C(F)(F)F)c1Cc1sc2c(c1C(=O)N1C[C@](C)(O)CO1)c(=O)n(C)c(=O)n2C(C)C [AZD3965]', 'concentration at 24 h', 0.285);
